Hey, just so you know, these numbers are from PubChem BioAssay (NCI).

TGI reference
Tested on: NCI/ADR-RES ovarian
Experiment: NCI tumour cell line growth inhibition, 48 h

# annotated cases, reported TGI shown
Oc1ccccc1-n1c(-c2ccccc2)ccc1-c1ccccc1 = 23.1 µM
COc1ccc(/C=C2\N=C3SC=C(N)N3C2=O)cc1 = 18.6 µM
CC#CC(=O)N1CCC[C@H]1c1nc(-c2ccc(C(=O)Nc3ccccn3)cc2)c2c(N)nccn12 = > 100 µM
C[C@@H]1CC[C@@]2(OC1)O[C@H]1C[C@H]3[C@@H]4CC=C5C[C@@H](O[C@@H]6O[C@H](CO)[C@@H](O[C@@H]7O[C@@H](CO)[C@H](O)[C@H]7O)[C@H](O)[C@H]6O[C@@H]6O[C@@H](C)[C@H](O)[C@@H](O)[C@H]6O)CC[C@]5(C)[C@H]4CC[C@]3(C)[C@H]1[C@@H]2C = 2.78 µM
COc1ccc([C@H]2O[C@@H](CO)C[C@]2(O)c2ccc(OC)cc2)cc1 = > 100 µM

Entry `CC(=O)c1cn(-c2ccc(Cl)cc2)c(=O)c2c(N)n[nH]c12` has what TGI?
> 100 µM

Entry COC(=O)C1=C(C)NC(C)=C([N+](=O)[O-])C1c1cccc(NO)c1 (stereo not drawn) has what TGI?
46.6 µM

Entry C=C(C)C1/C=C(/C(C)C)CC[C@]2(C)O[C@@H]2CC[C@H](C)CC1=O (stereo partly drawn) has what TGI?
> 100 µM
